Biological target: T1, human EpCAM (epithelial cell adhesion/activating molecule) (human, UniProt P16422 24-314)
T1 sequence: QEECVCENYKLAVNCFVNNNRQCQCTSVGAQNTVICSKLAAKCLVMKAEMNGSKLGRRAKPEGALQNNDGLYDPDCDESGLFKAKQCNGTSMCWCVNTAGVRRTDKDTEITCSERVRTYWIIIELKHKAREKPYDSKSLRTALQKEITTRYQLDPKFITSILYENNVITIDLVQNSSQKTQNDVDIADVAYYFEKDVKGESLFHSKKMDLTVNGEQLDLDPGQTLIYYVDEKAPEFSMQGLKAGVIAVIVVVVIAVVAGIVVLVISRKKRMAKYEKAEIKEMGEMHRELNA
Assay: cell-based or functional assay
property: % Annexin V/PI-positive cells, NIH:OVCAR-3, 10 µg/ml mAb (%)
One number for each entry, in %.

Please review the following examples before continuing.
{"binder": "murine monoclonal antibody 4D2 (antibody, mouse IgG1, V domains shown, Mouse IgG1, kappa, from hybridoma; also called m338-4D2.20) VH: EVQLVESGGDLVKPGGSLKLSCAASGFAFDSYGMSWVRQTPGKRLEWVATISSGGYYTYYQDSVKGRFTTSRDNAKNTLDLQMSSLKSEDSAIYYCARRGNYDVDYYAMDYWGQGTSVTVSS VL: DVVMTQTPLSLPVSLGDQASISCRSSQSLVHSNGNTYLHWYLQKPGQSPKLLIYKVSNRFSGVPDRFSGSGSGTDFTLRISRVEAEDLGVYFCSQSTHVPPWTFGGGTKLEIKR", "assay.result": 56}
{"binder": "murine monoclonal antibody 12H8 (antibody, mouse IgG2a, V domains shown, Mouse IgG2a, kappa, from hybridoma; also called m342-12H8.3; m12H8) VH: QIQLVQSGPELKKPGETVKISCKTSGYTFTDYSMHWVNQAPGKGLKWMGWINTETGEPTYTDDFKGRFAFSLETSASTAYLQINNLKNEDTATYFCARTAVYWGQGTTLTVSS VL: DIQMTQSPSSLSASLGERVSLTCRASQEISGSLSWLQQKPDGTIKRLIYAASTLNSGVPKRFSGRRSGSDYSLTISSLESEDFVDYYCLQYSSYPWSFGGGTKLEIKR", "assay.result": 63}
{"binder": "murine monoclonal antibody 2D11 (antibody, mouse IgG1, V domains shown, Mouse IgG1, kappa, from hybridoma; also called m322-2D11.19) VH: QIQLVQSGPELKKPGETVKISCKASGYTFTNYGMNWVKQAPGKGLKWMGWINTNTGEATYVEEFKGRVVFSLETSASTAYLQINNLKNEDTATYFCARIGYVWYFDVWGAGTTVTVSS VL: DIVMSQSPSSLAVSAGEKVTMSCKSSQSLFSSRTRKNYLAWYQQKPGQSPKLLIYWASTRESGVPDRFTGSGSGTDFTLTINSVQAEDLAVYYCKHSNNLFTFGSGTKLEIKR", "assay.result": 56}

Specify reported % Annexin V/PI-positive cells, NIH:OVCAR-3, 10 µg/ml mAb for the binder shown: murine monoclonal antibody 6D11 (antibody, mouse IgG1, V domains shown, Mouse IgG1, kappa, from hybridoma; also called m338-6D11.8) VH: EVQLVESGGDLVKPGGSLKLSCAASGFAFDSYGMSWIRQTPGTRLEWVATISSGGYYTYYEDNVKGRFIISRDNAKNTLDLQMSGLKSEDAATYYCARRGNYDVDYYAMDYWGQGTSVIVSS VL: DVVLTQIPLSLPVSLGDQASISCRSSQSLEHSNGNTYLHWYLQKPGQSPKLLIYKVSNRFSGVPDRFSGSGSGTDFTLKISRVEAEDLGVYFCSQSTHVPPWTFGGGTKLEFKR 55
